target: CP1B (Zea mays, UniProt K7TP58); experiment: fluorogenic substrate cleavage assay, apoplastic fluid of overexpressing N. benthamiana
Sequence (K7TP58 135-372 limits assumed): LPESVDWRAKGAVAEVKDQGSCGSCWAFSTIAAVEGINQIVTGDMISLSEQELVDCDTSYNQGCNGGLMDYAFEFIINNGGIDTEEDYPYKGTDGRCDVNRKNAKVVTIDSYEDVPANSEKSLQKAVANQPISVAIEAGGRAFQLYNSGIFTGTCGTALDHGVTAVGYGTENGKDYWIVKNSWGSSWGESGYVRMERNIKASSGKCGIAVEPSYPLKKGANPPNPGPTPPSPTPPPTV
measured-attribute: IC50 (nM)
Numbers only, in nM.

The molecule listed as `CC(C)C[C@H](NC(=O)[C@H]1O[C@@H]1C(=O)O)C(=O)NCCCCN=C(N)N` has a reported IC50 of 10

---

molecular target: CP1C (Zea mays); assay: fluorogenic substrate cleavage assay, apoplastic fluid of overexpressing N. benthamiana; settings: 10 uM Z-LR-AMC, pH 6, 0.5 mM DTT; covalent irreversible active-site inhibitor
Sequence (B4FS90 150-389 limits assumed): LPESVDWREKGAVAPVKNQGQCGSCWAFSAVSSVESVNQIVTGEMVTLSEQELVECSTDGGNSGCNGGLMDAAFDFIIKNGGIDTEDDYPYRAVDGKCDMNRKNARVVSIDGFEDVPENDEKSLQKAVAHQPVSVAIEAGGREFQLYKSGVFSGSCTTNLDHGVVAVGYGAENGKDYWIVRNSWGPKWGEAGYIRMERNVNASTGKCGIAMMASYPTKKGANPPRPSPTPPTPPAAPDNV
measured-attribute: pIC50
Answers are plain numbers, as −log10 of the molar value.

Bench note, CP1C (Zea mays): CC(C)C[C@H](NC(=O)[C@H]1O[C@@H]1C(=O)O)C(=O)NCCCCN=C(N)N [E-64] , pIC50 reads 8.49

Provenance of the data: paper PMC6503450
